target: UniProt Q05397
Sequence (Q05397 whole entry): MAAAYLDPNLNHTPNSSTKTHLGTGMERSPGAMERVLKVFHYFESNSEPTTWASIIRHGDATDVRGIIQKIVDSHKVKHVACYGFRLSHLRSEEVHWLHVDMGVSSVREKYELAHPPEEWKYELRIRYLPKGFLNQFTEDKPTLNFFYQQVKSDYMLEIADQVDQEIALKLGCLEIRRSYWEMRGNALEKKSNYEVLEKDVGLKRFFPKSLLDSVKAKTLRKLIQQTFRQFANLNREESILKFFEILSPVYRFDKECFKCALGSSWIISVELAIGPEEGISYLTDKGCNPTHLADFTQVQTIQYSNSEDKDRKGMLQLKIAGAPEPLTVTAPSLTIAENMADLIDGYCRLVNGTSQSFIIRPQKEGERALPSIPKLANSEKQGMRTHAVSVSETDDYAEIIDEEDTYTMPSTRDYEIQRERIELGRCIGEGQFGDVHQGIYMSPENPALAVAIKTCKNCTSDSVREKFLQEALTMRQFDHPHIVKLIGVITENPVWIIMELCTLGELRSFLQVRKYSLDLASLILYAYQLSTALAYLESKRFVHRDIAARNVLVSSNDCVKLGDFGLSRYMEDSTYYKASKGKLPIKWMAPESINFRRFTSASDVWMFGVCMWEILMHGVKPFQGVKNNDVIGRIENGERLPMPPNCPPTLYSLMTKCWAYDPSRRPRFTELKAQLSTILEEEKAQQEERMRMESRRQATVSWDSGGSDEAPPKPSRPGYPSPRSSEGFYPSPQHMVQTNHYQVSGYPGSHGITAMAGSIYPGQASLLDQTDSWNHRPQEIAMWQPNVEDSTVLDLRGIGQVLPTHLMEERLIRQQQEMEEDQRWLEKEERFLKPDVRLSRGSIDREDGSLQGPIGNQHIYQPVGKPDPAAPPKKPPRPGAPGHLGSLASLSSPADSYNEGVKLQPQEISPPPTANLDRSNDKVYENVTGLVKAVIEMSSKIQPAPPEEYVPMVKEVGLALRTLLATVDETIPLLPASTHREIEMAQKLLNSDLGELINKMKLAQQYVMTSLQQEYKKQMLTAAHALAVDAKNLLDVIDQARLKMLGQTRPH
Activity calls are given as the source filed them.
Hi there, use one of these labels in your reply, thanks! yes (1) = active, no (0) = inactive

Reference set (8 entries):
COc1cccc(Nc2ncnn3ccc(CN4CC[C@@H](N)[C@H](O)C4)c23)c1 [BMS-690514]
no (0)
C[C@@H]1COC(Nc2ccc3ncnc(Nc4ccc(OCc5nccs5)c(Cl)c4)c3c2)=N1 [VARLITINIB]
no (0)
Cc1c(NC(=O)OC[C@@H]2COCCN2)cn2ncnc(Nc3ccc4c(cnn4Cc4cccc(F)c4)c3)c12 [AC-480]
no (0)
Cc1cc(Nc2nc(N[C@@H](C)c3ncc(F)cn3)ncc2Cl)n[nH]1 [AZD-1480]
yes (1)
CC1(COc2ccc3c(c2)ncn3-c2ccc3cccc(N4CCC(N)CC4)c3n2)COC1 [CRENOLANIB]
no (0)
COc1cc(Nc2ncc(F)c(Nc3ccc4c(n3)N(COP(=O)(O)O)C(=O)C(C)(C)O4)n2)cc(OC)c1OC [FOSTAMATINIB]
yes (1)
O=C(NOC[C@H](O)CO)c1ccc(F)c(F)c1Nc1ccc(I)cc1F [MIRDAMETINIB]
no (0)
CCc1nc(C(N)=O)c(Nc2ccc(N3CCC(N4CCN(C)CC4)CC3)c(OC)c2)nc1NC1CCOCC1 [GILTERITINIB]
no (0)

In: Called result for O=c1[nH]c([C@@H]2CCCN2)nc2c1oc1ccc(Cl)cc12
Out: no (0)

In: How about this compound: COCCN1CCN(Cc2ccc(-c3n[nH]c4c3C(=O)c3c(NC(=O)NN5CCOCC5)cccc3-4)cc2)CC1 [RGB-286638]
Out: no (0)

In: COc1cc(F)c(F)c(Nc2ccc(I)cc2F)c1NS(=O)(=O)C1(C[C@H](O)CO)CC1 [REFAMETINIB] , same question.
Out: no (0)

In: Moving on to O=C(Nc1ccc(OC(F)(F)F)cc1)c1sccc1NCc1ccnc2ccccc12 [OSI-930]
Out: no (0)

In: Now the same for CCN1CCN(Cc2ccc(Nc3ncc(F)c(-c4cc(F)c5nc(C)n(C(C)C)c5c4)n3)nc2)CC1 [ABEMACICLIB]
Out: no (0)

Hey, just so you know, these numbers are from ChEMBL document CHEMBL3991601.
